Experiment: Proliferating HGEP cell viability with/without 5-FU
Format: cell-based, human
Details: human, proliferating HGEP cells; 10 μM of 5-FU; read-out: viability compared to a control system without 5-FU
Procedure: In one set of experiments, the results of which are shown in Table 1, proliferating HGEP cells, commonly used to assess oral mucosal toxicity, were exposed to the clinically-relevant dose of 10 μM of 5-FU and different concentrations of oxypurinol, either alone or with different concentrations of adenine or uracil, using standard tissue culture methods and incubated at 37° C. […] The relative viability of the cells was determined after 120 hours.

>  <Molecule>
O=c1[nH]cc(F)c(=O)[nH]1 [5-FU, 5-fluorouracil, reference compound]

>  <viability at 120 h, 10 µM, %>
62.2

$$$$
